Listed here: items and their measured Plasma (0.01 μM), activity in % of control.
- TESTED SYSTEM: Dopamine beta hydroxylase (Homo sapiens, UniProt P09172)
- Construct: 125 μl of plasma; tissue Instituto Português do Sangue Transplantação; host or cells: human plasma from healthy donors
- Sequence (P09172 40-617 limits assumed): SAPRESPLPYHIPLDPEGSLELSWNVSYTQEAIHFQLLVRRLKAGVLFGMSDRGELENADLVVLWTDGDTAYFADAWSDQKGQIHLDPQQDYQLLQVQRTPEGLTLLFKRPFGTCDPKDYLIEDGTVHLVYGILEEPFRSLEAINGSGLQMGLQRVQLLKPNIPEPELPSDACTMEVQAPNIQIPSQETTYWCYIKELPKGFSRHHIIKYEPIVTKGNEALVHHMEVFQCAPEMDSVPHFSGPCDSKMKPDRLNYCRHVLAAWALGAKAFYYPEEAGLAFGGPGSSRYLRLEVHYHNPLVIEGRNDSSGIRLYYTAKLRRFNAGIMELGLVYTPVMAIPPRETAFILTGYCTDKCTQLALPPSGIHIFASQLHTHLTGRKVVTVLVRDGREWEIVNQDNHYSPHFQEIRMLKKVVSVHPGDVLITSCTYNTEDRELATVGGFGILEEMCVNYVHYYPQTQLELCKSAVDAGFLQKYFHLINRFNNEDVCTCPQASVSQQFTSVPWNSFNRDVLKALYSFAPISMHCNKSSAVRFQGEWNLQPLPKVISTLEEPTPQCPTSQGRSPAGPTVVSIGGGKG
- ASSAY NOTES: Dopamine beta hydroxylase activity in human plasma
- Type: biochemical
- CONDITION NOTES: inhibitor 0.01 μM
METRIC NAME: Plasma (0.01 μM), activity in % of control

COMPOUND STRING: Cn1c(CC(=O)N[C@H]2CCOC2)c2n(c1=S)C[C@@H](c1c(F)c(F)cc(F)c1F)C2
TESTED SYSTEM: Dopamine beta hydroxylase (Homo sapiens, UniProt P09172)
ENDPOINT VALUE: 95.6 % of control

COMPOUND STRING: N#C/N=C(/NCc1[nH]c(=S)n2c1C[C@@H](c1c(F)ccc(Br)c1F)C2)N1CCCC1
TESTED SYSTEM: Dopamine beta hydroxylase (Homo sapiens, UniProt P09172)
ENDPOINT VALUE: 65.3 % of control

COMPOUND STRING: Cn1c(CCC(=O)Nc2ccccn2)c2n(c1=S)C[C@@H](c1c(F)cccc1F)C2
TESTED SYSTEM: Dopamine beta hydroxylase (Homo sapiens, UniProt P09172)
ENDPOINT VALUE: 105.6 % of control

COMPOUND STRING: Fc1ccc(Br)c(F)c1[C@H]1Cc2c(CCN[C@@H]3CCOC3)[nH]c(=S)n2C1
TESTED SYSTEM: Dopamine beta hydroxylase (Homo sapiens, UniProt P09172)
ENDPOINT VALUE: 95.3 % of control

COMPOUND STRING: Cn1c(CC(=O)N2CC[C@H](C#N)C2)c2n(c1=S)C[C@H](c1c(F)ccc(Br)c1F)C2
TESTED SYSTEM: Dopamine beta hydroxylase (Homo sapiens, UniProt P09172)
ENDPOINT VALUE: 32.6 % of control

COMPOUND STRING: Cn1c(CC(=O)N[C@@H]2CCOC2)c2n(c1=S)C[C@@]1(c3c(F)ccc(Cl)c3F)C[C@@H]21
TESTED SYSTEM: Dopamine beta hydroxylase (Homo sapiens, UniProt P09172)
ENDPOINT VALUE: 55.9 % of control

COMPOUND STRING: Cn1c(CC(=O)N[C@@H]2CCOC2)c2n(c1=S)C[C@@H](c1c(F)cccc1F)C2
TESTED SYSTEM: Dopamine beta hydroxylase (Homo sapiens, UniProt P09172)
ENDPOINT VALUE: 83.0 % of control

COMPOUND STRING: Cl.Cn1c(CCN[C@@H]2CCCOC2)c2n(c1=S)C[C@@]1(c3cc(Br)ccc3F)C[C@@H]21
TESTED SYSTEM: Dopamine beta hydroxylase (Homo sapiens, UniProt P09172)
ENDPOINT VALUE: 77.4 % of control

---

- TESTED SYSTEM: Dopamine beta hydroxylase (Homo sapiens)
- Construct: 125 μl of plasma; tissue Instituto Português do Sangue Transplantação; host or cells: human plasma from healthy donors
- ASSAY NOTES: Dopamine beta hydroxylase activity in human plasma
- Type: biochemical
- CONDITION NOTES: inhibitor 0.1 μM
Listed here: items and their measured Plasma (0.1 μM), activity in % of control.
METRIC NAME: Plasma (0.1 μM), activity in % of control

MOLECULE: Cn1c(CC(=O)N2CCCCC2)c2n(c1=S)C[C@@]1(c3cc(Cl)ccc3F)C[C@@H]21 [Example 311]
ENDPOINT VALUE: 21.6 % of control

MOLECULE: CN(CCO)C(=O)Cc1[nH]c(=S)n2c1C[C@H](c1c(F)ccc(Br)c1F)C2 [Example 131]
ENDPOINT VALUE: 50.5 % of control

MOLECULE: Cn1c(CC(=O)NCC2CCOCC2)c2n(c1=S)C[C@H](c1cc(F)cc(F)c1)C2 [Example 428]
ENDPOINT VALUE: 32.3 % of control

MOLECULE: CN(C)C(=O)Cc1[nH]c(=S)n2c1C[C@H](c1c(F)c(F)cc(F)c1F)C2 [Example 30]
ENDPOINT VALUE: 73.2 % of control

---

Listed here: items and their measured Plasma (0.1 μM), activity in % of control.
- TESTED SYSTEM: Dopamine beta hydroxylase (Homo sapiens)
- Construct: 125 μl of plasma; tissue Instituto Português do Sangue Transplantação; host or cells: human plasma from healthy donors
- ASSAY NOTES: Dopamine beta hydroxylase activity in human plasma
- Assay type: biochemical
- CONDITION NOTES: inhibitor 0.1 μM
METRIC NAME: Plasma (0.1 μM), activity in % of control

COMPOUND STRING: CN(C(=O)Cc1c2n(c(=S)n1C)C[C@@]1(c3c(F)ccc(Cl)c3F)C[C@@H]21)C1COC1
ENDPOINT VALUE: 4.8 % of control

COMPOUND STRING: CN(C(=O)Cc1c2n(c(=S)n1C)C[C@H](c1c(F)ccc(Br)c1F)C2)C1COC1
ENDPOINT VALUE: 8.1 % of control

COMPOUND STRING: Cn1c(CC(=O)NC[C@H]2CCCO2)c2n(c1=S)C[C@H](c1c(F)ccc(Cl)c1F)C2
ENDPOINT VALUE: 9.4 % of control

COMPOUND STRING: O=C(Cc1[nH]c(=S)n2c1[C@@H]1C[C@]1(c1cc(Cl)ccc1F)C2)Nc1cccnc1
ENDPOINT VALUE: 3.7 % of control

COMPOUND STRING: COC[C@@H]1CCCN1C(=O)Cc1c2n(c(=S)n1C)C[C@@H](c1c(F)c(F)cc(F)c1F)C2
ENDPOINT VALUE: 72.9 % of control

COMPOUND STRING: O=C(NCc1[nH]c(=S)n2c1C[C@@H](c1c(F)ccc(Cl)c1F)C2)C1CCOCC1
ENDPOINT VALUE: 12.9 % of control

COMPOUND STRING: Cl.Cn1c(CCNCC(F)(F)F)c2n(c1=S)C[C@@]1(c3cc(Br)ccc3F)C[C@@H]21
ENDPOINT VALUE: 41.9 % of control

COMPOUND STRING: CS(=O)(=O)C1CCN(C(=O)Cc2[nH]c(=S)n3c2C[C@H](c2c(F)ccc(Br)c2F)C3)CC1
ENDPOINT VALUE: 40.2 % of control

COMPOUND STRING: O=C(O)Cc1[nH]c(=S)n2c1C[C@H](c1cc(Cl)ccc1F)C2
ENDPOINT VALUE: 79.0 % of control

COMPOUND STRING: Cl.Cn1c(CC(=O)NCc2cnccn2)c2n(c1=S)C[C@@]1(c3cc(Cl)ccc3F)C[C@@H]21
ENDPOINT VALUE: 8.7 % of control

COMPOUND STRING: O=C(Cc1[nH]c(=S)n2c1C[C@@H](c1c(F)ccc(Br)c1F)C2)N1CCC2(CCOC2)CC1
ENDPOINT VALUE: 14.8 % of control

COMPOUND STRING: Cc1nnc(NC(=O)Cc2c3n(c(=S)n2C)C[C@H](c2c(F)ccc(Cl)c2F)C3)o1
ENDPOINT VALUE: 12.5 % of control

COMPOUND STRING: Cn1c(CC(=O)N[C@@H]2CCCOC2)c2n(c1=S)C[C@H](c1c(F)ccc(Br)c1F)C2
ENDPOINT VALUE: 6.0 % of control

COMPOUND STRING: CS(=O)(=O)CCNC(=O)Cc1[nH]c(=S)n2c1C[C@@H](c1c(F)ccc(Cl)c1F)C2
ENDPOINT VALUE: 7.5 % of control

COMPOUND STRING: Cn1c(CC(=O)NCC(F)(F)F)c2n(c1=S)C[C@@]1(c3cc(Br)ccc3F)C[C@@H]21
ENDPOINT VALUE: 28.2 % of control

COMPOUND STRING: O=C(O)Cc1[nH]c(=S)n2c1C[C@H](c1cc(F)ccc1F)C2
ENDPOINT VALUE: 92.8 % of control
